# test-system: Histone deacetylase HD1B (Zea mays)
# assay-text: Inhibition of maize histone deacetylase 1B
# measurement-parameters: read-out: IC50
pIC50: −log10 of the molar value.
readout: pIC50

[[record]]
compound_string = "Cn1cc(/C=C/C(=O)c2ccccc2Br)cc1/C=C/C(=O)NO"
readout = "pIC50"
observed = 6.74

[[record]]
compound_string = "CC/C(=C\\c1cc(/C=C/C(=O)NO)n(C)c1)C(=O)c1ccccc1"
readout = "pIC50"
observed = 5.35

[[record]]
compound_string = "Cn1cc(/C=C/C(=O)c2ccc(F)c(F)c2)cc1/C=C/C(=O)NO"
readout = "pIC50"
observed = 4.87

[[record]]
compound_string = "Cn1cc(/C=C/C(=O)c2ccc(Cl)cc2)cc1/C=C/C(=O)NO"
readout = "pIC50"
observed = 4.53

[[record]]
compound_string = "C/C(=C\\c1cc(/C=C/C(=O)NO)n(C)c1)C(=O)c1ccccc1"
readout = "pIC50"
observed = 6.24

[[record]]
compound_string = "Cn1cc(/C=C/C(=O)c2cccc(F)c2)cc1/C=C/C(=O)NO"
readout = "pIC50"
observed = 4.41

[[record]]
compound_string = "Cc1ccc(C(=O)/C=C/c2cc(/C=C/C(=O)NO)n(C)c2)cc1"
readout = "pIC50"
observed = 5.32

[[record]]
compound_string = "Cn1cc(/C=C2\\CCCc3ccccc3C2=O)cc1/C=C/C(=O)NO"
readout = "pIC50"
observed = 6.29

[[record]]
compound_string = "Cn1cc(/C=C/C(=O)c2cccc(Cl)c2Cl)cc1/C=C/C(=O)NO"
readout = "pIC50"
observed = 4.76

[[record]]
compound_string = "COc1ccccc1C(=O)/C=C/c1cc(/C=C/C(=O)NO)n(C)c1"
readout = "pIC50"
observed = 6.77


---

# test-system: Histone deacetylase HD1B (Zea mays, UniProt Q9ZTP8)
# Sequence (Q9ZTP8 whole entry): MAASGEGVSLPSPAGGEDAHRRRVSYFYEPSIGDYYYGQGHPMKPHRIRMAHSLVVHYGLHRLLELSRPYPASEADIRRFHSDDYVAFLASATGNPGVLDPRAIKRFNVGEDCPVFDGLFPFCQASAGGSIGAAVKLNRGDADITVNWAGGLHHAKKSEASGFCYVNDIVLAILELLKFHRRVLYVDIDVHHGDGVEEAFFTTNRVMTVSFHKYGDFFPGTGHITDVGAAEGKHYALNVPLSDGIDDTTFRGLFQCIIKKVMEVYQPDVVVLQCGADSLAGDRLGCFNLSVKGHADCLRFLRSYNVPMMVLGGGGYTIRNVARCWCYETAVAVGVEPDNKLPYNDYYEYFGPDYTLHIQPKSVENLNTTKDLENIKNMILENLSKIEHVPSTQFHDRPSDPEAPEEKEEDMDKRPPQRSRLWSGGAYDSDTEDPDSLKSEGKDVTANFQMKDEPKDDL
# assay-text: Inhibition of maize histone deacetylase 1B
# measurement-parameters: read-out: IC50
readout: IC50 (µM)

[[record]]
compound_string = "Cn1cc(/C=C/C(=O)c2ccco2)cc1/C=C/C(=O)NO"
test_system = "Histone deacetylase HD1B (Zea mays, UniProt Q9ZTP8)"
readout_unit = "µM"
observed = 19.7

[[record]]
compound_string = "Cn1cc(/C=C/C(=O)c2ccc(Br)cc2)cc1/C=C/C(=O)NO"
test_system = "Histone deacetylase HD1B (Zea mays, UniProt Q9ZTP8)"
readout_unit = "µM"
observed = 24.3

[[record]]
compound_string = "Cn1cc(/C=C/C(=O)c2ccc(F)cc2)cc1/C=C/C(=O)NO"
test_system = "Histone deacetylase HD1B (Zea mays, UniProt Q9ZTP8)"
readout_unit = "µM"
observed = 24.9


Attribution: ChEMBL document CHEMBL1149816
